Molecular target: T1, CathepsinG, from human neutrophils (human, UniProt P08311 21-244)
T1 sequence (looked up): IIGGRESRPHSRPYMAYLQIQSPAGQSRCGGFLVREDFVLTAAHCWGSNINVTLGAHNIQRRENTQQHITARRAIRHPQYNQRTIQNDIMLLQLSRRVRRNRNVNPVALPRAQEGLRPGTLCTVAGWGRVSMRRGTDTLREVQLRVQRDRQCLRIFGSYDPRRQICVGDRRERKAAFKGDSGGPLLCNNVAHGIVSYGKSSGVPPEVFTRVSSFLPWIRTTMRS
Test: cell-based or functional assay
Bridges are numbered along the chain shown (N, C = ends). [ ]: non-standard residue; d: D form.
Listed next: entries and their corresponding IC50.
outcome.measure: IC50 (nmol)

binder	value.measured
FCTKSEPPICT (HELM PEPTIDE1{F.C.T.K.S.E.P.P.I.C.T.[dP].P}$PEPTIDE1,PEPTIDE1,2:R3-10:R3|PEPTIDE1,PEPTIDE1,1:R1-13:R2$$$V2.0; SMILES CC[C@H](C)[C@@H]1NC(=O)[C@@H]2CCCN2C(=O)[C@@H]2CCCN2C(=O)[C@H](CCC(=O)O)NC(=O)[C@H](CO)NC(=O)[C@H](CCCCN)NC(=O)[C@H]([C@@H](C)O)NC(=O)[C@@H]2CSSC[C@H](NC1=O)C(=O)N[C@@H]([C@@H](C)O)C(=O)N1CCC[C@@H]1C(=O)N1CCC[C@H]1C(=O)N[C@@H](Cc1ccccc1)C(=O)N2) [Example 1]	86
FCTXSDPPICY (HELM PEPTIDE1{F.C.T.[Nle].S.D.P.P.I.C.Y.[dP].P}$PEPTIDE1,PEPTIDE1,2:R3-10:R3|PEPTIDE1,PEPTIDE1,1:R1-13:R2$$$V2.0; SMILES CCCC[C@@H]1NC(=O)[C@H]([C@@H](C)O)NC(=O)[C@@H]2CSSC[C@H](NC(=O)[C@H]([C@@H](C)CC)NC(=O)[C@@H]3CCCN3C(=O)[C@@H]3CCCN3C(=O)[C@H](CC(=O)O)NC(=O)[C@H](CO)NC1=O)C(=O)N[C@@H](Cc1ccc(O)cc1)C(=O)N1CCC[C@@H]1C(=O)N1CCC[C@H]1C(=O)N[C@@H](Cc1ccccc1)C(=O)N2) [Example 60]	38
cyclo(FCTKSDPPICS[dP]L) (disulfide 2-10) [Example 74]	91
